Cited source for all entries: patent US20120309717A1

target or test system: purified recombinant human PARP (Homo sapiens)
Construct: purchased Trevigan (Gaithersburg, Md.)
measurement description: PARP enzyme assay (IC50)
Assay type: biochemical
experimental setup: Table II; approximate values
Values of IC50 strictly less than 40 nM map to Y, and values of at least 40 nM map to N.

Record O=C(CCP(=O)(OCc1ccccc1)OCc1ccccc1)OCc1ccc2c(c1)-c1n[nH]c(=O)c3cccc(c13)O2 : is its IC50 strictly below 40 nM?
N

Decide: IC50 of O=c1[nH]nc2c3c(cccc13)Oc1ccc(COP(=O)(OCc3ccccc3)OCc3ccccc3)cc1-2 [drawing 55] strictly below 40 nM?
N

Just wondering, is IC50 of N=C(N)NCc1ccc2c(c1)-c1n[nH]c(=O)c3cccc(c13)O2 below 40 nM?
Y

Take the compound O=C(O)C(O)C(O)C(=O)NCc1ccc2c(c1)-c1n[nH]c(=O)c3cccc(c13)O2 (centres unmarked) [drawing 41] and say whether its IC50 is less than 40 nM.
Y

Does O=c1[nH]nc2c3c(cccc13)Oc1ccc(CN3CCOCC3)cc1-2 have IC50 strictly under 40 nM?
N

====

target or test system: purified recombinant human PARP (Homo sapiens)
Construct: purchased Trevigan (Gaithersburg, Md.)
measurement description: PARP enzyme assay (IC50)
Assay type: biochemical
experimental setup: Table II; approximate values
recorded metric: IC50 (nM)
One number for each entry, in nM.

CN(C)CCN(C)Cc1ccc2c(c1)-c1n[nH]c(=O)c3cccc(c13)O2 = 100
NOCc1ccc2c(c1)-c1n[nH]c(=O)c3cccc(c13)O2 = 165

Please state IC50 for every compound in the list that follows.
1. C=COC(=O)c1ccc2c(c1)-c1n[nH]c(=O)c3cccc(c13)O2
2. O=c1[nH]nc2c3c(cccc13)Oc1ccc(CO)cc1-2
3. CN(C)c1ccc(/N=N/c2ccc(S(=O)(=O)NCc3ccc4c(c3)-c3n[nH]c(=O)c5cccc(c35)O4)cc2)cc1
4. NCc1ccc2c(c1)-c1n[nH]c(=O)c3cccc(c13)O2
5. O=c1[nH]nc2c3c(cccc13)Oc1ccc(CN3CCN(CCOCCO)CC3)cc1-2

[89, 92, 1300, 19, 128]

====

target or test system: purified recombinant human PARP (Homo sapiens, UniProt P09874)
Construct: purchased Trevigan (Gaithersburg, Md.)
Sequence (P09874 whole entry): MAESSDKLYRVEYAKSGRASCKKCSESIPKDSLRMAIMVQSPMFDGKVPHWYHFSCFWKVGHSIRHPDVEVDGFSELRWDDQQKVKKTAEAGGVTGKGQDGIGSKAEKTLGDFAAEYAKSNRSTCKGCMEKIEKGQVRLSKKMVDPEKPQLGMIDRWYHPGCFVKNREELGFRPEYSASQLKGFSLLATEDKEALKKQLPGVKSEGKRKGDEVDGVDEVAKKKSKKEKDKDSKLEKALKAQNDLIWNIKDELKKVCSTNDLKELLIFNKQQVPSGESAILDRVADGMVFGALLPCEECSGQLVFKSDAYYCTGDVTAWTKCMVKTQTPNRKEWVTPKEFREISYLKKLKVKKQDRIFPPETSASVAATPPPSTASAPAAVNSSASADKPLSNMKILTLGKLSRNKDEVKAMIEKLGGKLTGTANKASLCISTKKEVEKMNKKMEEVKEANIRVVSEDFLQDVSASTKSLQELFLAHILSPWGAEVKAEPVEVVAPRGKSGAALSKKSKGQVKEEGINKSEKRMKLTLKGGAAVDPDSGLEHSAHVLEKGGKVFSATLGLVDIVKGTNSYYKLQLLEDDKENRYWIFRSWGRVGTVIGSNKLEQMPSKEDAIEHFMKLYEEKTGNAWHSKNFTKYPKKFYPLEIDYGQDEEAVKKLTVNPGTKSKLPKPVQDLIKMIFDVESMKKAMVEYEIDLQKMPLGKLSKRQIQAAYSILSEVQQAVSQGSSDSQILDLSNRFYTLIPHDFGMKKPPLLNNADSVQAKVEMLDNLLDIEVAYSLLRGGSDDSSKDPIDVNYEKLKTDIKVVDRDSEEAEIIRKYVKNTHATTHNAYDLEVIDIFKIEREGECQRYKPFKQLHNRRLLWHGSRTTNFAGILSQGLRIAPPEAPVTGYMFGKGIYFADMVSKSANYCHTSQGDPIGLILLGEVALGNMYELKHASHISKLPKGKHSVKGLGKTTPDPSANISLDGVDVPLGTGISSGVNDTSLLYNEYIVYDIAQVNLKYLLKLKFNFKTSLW
measurement description: PARP enzyme assay (IC50)
Type: biochemical
experimental setup: Table II; approximate values
pIC50: −log10 of the molar value.
Give 1 when the value for pIC50 is at least 7. Give 0 when it is less.

O=C(O)c1ccc2c(c1)-c1n[nH]c(=O)c3cccc(c13)O2 = 0

Assess whether reported pIC50 for CC(=O)OC(C(=O)O)C(OC(C)=O)C(=O)NCc1ccc2c(c1)-c1n[nH]c(=O)c3cccc(c13)O2 (centres unmarked) sits at 7 or higher.
1

Test whether the compound O=c1[nH]nc2c3c(cccc13)Oc1ccc(CN3CCNCC3)cc1-2 records pIC50 of 7 or higher.
1

Check the entry CCOP(=O)(NCc1ccc2c(c1)-c1n[nH]c(=O)c3cccc(c13)O2)OCC : does pIC50 equal or exceed 7?
0

====

target or test system: purified recombinant human PARP (Homo sapiens, UniProt P09874)
Construct: purchased Trevigan (Gaithersburg, Md.)
measurement description: PARP enzyme assay (IC50)
Assay type: biochemical
experimental setup: Table II; approximate values
Source text: […]
For each record, write down the corresponding pIC50.
Give bare numbers, as −log10 of the molar value.

Worked cases, pIC50 given:
O=c1[nH]nc2c3c(cccc13)Oc1ccc(COP(=O)(O)O)cc1-2 = 7.47
O=C(CCl)OCc1ccc2c(c1)-c1n[nH]c(=O)c3cccc(c13)O2 = 6.75
CN1CCN(Cc2ccc3c(c2)-c2n[nH]c(=O)c4cccc(c24)O3)CC1 [drawing 46] = 7.13

// next entry
Request the reported pIC50 associated with O=c1[nH]nc2c3c(cccc13)Oc1ccc(CN(CCO)CCO)cc1-2 [drawing 52]
7.42

====

recorded metric: melting point

// below: answered compounds
O=c1[nH]nc2c3c(cccc13)Oc1ccc(CN3CCC(N4CCCC4)CC3)cc1-2 = 258 to 264 °C
CN(C)CC(=O)OCc1ccc2c(c1)-c1n[nH]c(=O)c3cccc(c13)O2 = 227 to 230 °C
O=c1[nH]nc2c3c(cccc13)Oc1ccc(COP(=O)(OCc3ccccc3)OCc3ccccc3)cc1-2 = 223 to 225 °C
CN(C)c1ccc(N=Nc2ccc(S(=O)(=O)NCc3ccc4c(c3)-c3n[nH]c(=O)c5cccc(c35)O4)cc2)cc1 = > 300 °C
O=c1[nH]nc2c3c(cccc13)Oc1ccc(CN(CCO)CCO)cc1-2 = 222 to 225 °C

Shift focus to the following entry.
Fill in the blank: the reported melting point of O=C(O)C(O)C(O)C(=O)NCc1ccc2c(c1)-c1n[nH]c(=O)c3cccc(c13)O2 (stereo not drawn) is ____.
181 to 185 °C

====

Give measured IC50 for each item. Keep answers brief.
target or test system: purified recombinant human PARP (Homo sapiens, UniProt P09874)
Construct: purchased Trevigan (Gaithersburg, Md.)
measurement description: PARP enzyme assay (IC50)
Type: biochemical
experimental setup: Table I; approximate values
One number for each entry, in nM.

NNC(=O)C1=Nc2n[nH]c(=O)c3cccc(c23)N1 = 21
NNC(=O)C1=CNc2cccc3c(=O)[nH]nc1c23 = 14

// query IC50 value for entry CC1=Cc2n[nH]c(=O)c3ccc(Cl)c(c23)N1
120

====

target or test system: purified recombinant human PARP (Homo sapiens)
Construct: purchased Trevigan (Gaithersburg, Md.)
measurement description: PARP enzyme assay (IC50)
Assay type: biochemical
experimental setup: Table II; approximate values
recorded metric: pIC50
One number for each entry, as −log10 of the molar value.

Some solved cases for reference:
O=C(NCc1ccc2c(c1)-c1n[nH]c(=O)c3cccc(c13)O2)C1CCCN1 (stereo not drawn) = 7.52
CN(C)CC(=O)OCc1ccc2c(c1)-c1n[nH]c(=O)c3cccc(c13)O2 [drawing 54] = 6.90

In the following, a different compound is considered.
Need pIC50 of CCN1CCN(Cc2ccc3c(c2)-c2n[nH]c(=O)c4cccc(c24)O3)CC1 , thanks.
7.22
